experiment: in vivo; details: po, rat, per os, read-out: toxicity, per os
measuredEndpoint: LD50

Challenge: State the recorded LD50 for this entry: O=C(O)C[C@@](O)(C(=O)O)[C@H](O)C(=O)O [Magnesium (-)hydroxycitrate, magnesium (-)hydroxycitrate]
Response given: > 7000 mg/kg

Source: patent US6221901A
